Reported IC50 values for the following compounds.
tested on: A2780 ovarian cells; assay: A2780 Ovarian Cell Proliferation Assay in Lipid Reduced Medium, without Palmitate; format: cell-based; details: Homo sapiens, A2780; lipid reduced medium, without palmitate, 96 h, MTT; read-out: Proliferation A2780 w/o Palmitate pIC50 (converted)
REPORTED ENDPOINT: IC50

>>> df
                                   compound          test_system  reported_endpoint  readout_value
0  Cc1ccc(C(=O)N2CCC(c3ccc(-c4cnn(C)c4)cc3)CC2)cc1NC(=O)c1cccs1 [Compound 130]  A2780 ovarian cells               IC50        ~123 nM
1  Cc1ccc(C(=O)N2CCC(c3ccc(-c4cn(C)nc4C)cc3)CC2)cc1NC(=O)c1ccc(NC(C)C)nc1 [Compound 245]  A2780 ovarian cells               IC50       ~31.6 nM
2  Cc1ccc(C(=O)N2CCC(c3ccc(-c4cnn(C)c4)cc3)CC2)cc1NC(=O)c1cnc(N(C)C(C)C)nc1 [Compound 144]  A2780 ovarian cells               IC50       ~12.3 nM
3  CC(C)N(C)c1ccc(C(=O)N2CCC(c3ccc(-c4cnn(C)c4)cc3)CC2)cc1NC(=O)c1ccc(Cl)nc1 [Compound 274]  A2780 ovarian cells               IC50        ~302 nM

---

Reported IC50 values for the following molecules.
test system: A2780 ovarian cells; experiment: A2780 Ovarian Cell Proliferation Assay in Lipid Reduced Medium, without Palmitate; format: cell-based; details: Homo sapiens, A2780; lipid reduced medium, without palmitate, 96 h, MTT; read-out: Proliferation A2780 w/o Palmitate pIC50 (converted)
REPORTED ENDPOINT: IC50

In [3]: df
Out[3]:
                           molecular_string  readout_value
0  Cc1ccc(C(=O)N2CC(c3ccc(-c4ccc5cnn(C)c5c4)cc3)C2)cc1NC(=O)c1ccc(NC(C)C)nc1       ~74.1 nM
1  Cc1ccc(C(=O)N2CCC(c3ccc(-c4cnoc4)cc3)CC2)cc1NC(=O)c1ccc(NC(C)C)nc1       ~33.9 nM
2  CC(C)Nc1ccc(C(=O)Nc2cc(C(=O)N3CCC(c4ccc(-c5cnn(C)c5)cc4)CC3)ccc2N(C)C(C)C)cn1        ~257 nM

---

Test system: A2780 ovarian cells
Experiment: A2780 Ovarian Cell Proliferation Assay in Lipid Reduced Medium, without Palmitate
Type: cell-based
Settings: Homo sapiens, A2780; lipid reduced medium, without palmitate, 96 h, MTT; read-out: Proliferation A2780 w/o Palmitate pIC50 (converted)
Protocol: The biological assays described below correspond to comparative assays for ovarian cell proliferation. […] Compounds active in the absence of palmitate would not be expected to be active in the control. 2500 cells were seeded in a 96-well clear well plate in 200 μL RPMI1640 with 10% Fetal Calf Serum (Hyclone), and incubated at 37° C., 5% CO2. Blanks were wells without cells. […] The absorbance was measured at 544 nm on a SPECTRAMAX. […]
REPORTED ENDPOINT: IC50

In [3]: df
Out[3]:
                                   molecule  reported_endpoint  readout_value
0  Cc1ccc(C(=O)N2CC(c3ccc(-c4ccnn4C)cc3)C2)cc1NC(=O)c1ccc(N(C)C2CCN(C)CC2)nc1 [Compound 61]               IC50       ~91.2 nM
1  Cc1ccc(C(=O)N2CC(c3ccc(-c4cnn(C)c4)cc3)C2)cc1NC(=O)c1ccc(N2CCOCC2)nc1 [Compound #66]               IC50       ~22.9 nM
2  Cc1ccc(C(=O)N2CC(c3ccc(-c4cnn(C)c4)cc3)C2)cc1NC(=O)c1ccc(NC2CCC2)nc1 [Compound 109]               IC50       ~23.4 nM

---

Reported IC50 values for the following compounds.
biological target: FASN Keto-reductase Domain (Homo sapiens); construct: 10 μL hFASN enzyme (full length, 300 ng, purified in house) and 360 μM NADPH; made in house; experiment: Fatty Acid Synthase Keto-Reductase Domain (FASN KR) Inhibition; assay type: biochemical; conditions: mean where tested more than once; read-out: FASN K-R Domain pIC50 (converted)
Sequence (P49327 whole entry, the tested form may be a part): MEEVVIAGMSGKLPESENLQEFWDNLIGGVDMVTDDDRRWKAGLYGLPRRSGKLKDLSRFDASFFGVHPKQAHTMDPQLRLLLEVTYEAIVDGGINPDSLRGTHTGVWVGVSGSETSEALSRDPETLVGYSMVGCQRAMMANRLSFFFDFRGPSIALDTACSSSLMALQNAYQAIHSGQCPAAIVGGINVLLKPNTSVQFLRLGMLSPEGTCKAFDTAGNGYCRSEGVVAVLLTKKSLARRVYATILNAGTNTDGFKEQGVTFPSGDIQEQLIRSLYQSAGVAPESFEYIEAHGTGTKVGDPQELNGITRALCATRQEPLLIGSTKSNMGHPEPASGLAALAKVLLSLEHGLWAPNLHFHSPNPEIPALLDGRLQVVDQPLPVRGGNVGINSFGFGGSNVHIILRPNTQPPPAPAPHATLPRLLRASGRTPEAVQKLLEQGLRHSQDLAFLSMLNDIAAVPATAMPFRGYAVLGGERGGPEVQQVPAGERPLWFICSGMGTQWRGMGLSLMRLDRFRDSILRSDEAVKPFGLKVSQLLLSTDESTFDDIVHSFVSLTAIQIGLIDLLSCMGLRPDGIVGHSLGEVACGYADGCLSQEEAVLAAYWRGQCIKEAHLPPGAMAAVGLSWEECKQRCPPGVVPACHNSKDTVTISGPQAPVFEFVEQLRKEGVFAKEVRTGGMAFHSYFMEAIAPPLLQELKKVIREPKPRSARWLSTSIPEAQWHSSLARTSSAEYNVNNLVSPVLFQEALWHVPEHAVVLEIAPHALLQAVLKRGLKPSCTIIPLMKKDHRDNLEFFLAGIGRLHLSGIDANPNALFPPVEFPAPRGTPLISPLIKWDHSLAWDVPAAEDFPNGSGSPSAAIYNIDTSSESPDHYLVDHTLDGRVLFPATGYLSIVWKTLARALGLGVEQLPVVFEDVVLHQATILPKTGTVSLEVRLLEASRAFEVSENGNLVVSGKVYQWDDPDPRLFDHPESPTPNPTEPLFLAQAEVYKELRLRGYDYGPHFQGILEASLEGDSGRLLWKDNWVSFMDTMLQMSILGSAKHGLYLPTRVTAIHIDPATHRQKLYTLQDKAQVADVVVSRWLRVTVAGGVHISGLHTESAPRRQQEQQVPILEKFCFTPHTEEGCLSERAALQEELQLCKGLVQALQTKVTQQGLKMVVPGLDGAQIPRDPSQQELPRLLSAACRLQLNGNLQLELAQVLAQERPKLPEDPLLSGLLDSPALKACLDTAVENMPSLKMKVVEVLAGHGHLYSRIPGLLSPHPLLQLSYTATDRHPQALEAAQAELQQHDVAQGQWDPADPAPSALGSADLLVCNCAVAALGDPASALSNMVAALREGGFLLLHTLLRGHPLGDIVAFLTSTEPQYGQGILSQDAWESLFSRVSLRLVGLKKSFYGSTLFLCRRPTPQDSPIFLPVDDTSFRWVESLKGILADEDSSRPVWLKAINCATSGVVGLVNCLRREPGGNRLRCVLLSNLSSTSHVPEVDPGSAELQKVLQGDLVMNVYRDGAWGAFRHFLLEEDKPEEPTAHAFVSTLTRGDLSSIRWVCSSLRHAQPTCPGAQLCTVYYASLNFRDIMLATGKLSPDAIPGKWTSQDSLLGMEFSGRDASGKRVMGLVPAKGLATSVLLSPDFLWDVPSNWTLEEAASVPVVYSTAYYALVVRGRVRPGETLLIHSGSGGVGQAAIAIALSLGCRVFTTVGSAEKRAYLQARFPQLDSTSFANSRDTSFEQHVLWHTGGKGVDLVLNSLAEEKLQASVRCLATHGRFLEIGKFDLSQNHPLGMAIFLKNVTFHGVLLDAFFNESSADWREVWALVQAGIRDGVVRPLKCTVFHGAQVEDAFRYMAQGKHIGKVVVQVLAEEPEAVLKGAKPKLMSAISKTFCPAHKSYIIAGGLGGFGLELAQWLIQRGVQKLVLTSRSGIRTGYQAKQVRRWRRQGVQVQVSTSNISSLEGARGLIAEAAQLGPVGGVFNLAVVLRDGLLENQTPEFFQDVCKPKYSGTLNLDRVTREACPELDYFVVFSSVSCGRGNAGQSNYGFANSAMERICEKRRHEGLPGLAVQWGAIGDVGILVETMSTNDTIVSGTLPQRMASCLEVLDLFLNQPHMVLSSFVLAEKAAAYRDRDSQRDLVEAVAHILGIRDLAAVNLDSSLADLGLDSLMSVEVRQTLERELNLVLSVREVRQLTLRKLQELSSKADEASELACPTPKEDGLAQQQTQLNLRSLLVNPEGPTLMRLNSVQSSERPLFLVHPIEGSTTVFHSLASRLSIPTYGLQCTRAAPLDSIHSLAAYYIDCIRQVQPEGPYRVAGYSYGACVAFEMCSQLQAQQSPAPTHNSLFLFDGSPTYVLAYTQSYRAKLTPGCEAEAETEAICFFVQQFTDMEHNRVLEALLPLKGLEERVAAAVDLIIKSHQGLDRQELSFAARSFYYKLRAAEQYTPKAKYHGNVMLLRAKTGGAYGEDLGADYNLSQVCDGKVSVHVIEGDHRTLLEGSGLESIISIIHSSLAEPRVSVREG
REPORTED ENDPOINT: IC50 (nM)

>>> df
                                   compound                               test_system  readout_value
0  CC(C)Nc1ccc(C(=O)Nc2cc(C(=O)N3CCC(c4ccc(-c5cnn(C)c5)cc4)CC3)ccc2N(C)C2CC2)cn1  FASN Keto-reductase Domain (Homo sapiens)            204
1  Cc1ccc(C(=O)N2CCC(c3ccc(-c4ccoc4)cc3)CC2)cc1NC(=O)c1ccc(NC(C)C)nc1  FASN Keto-reductase Domain (Homo sapiens)            102
2  Cc1ccc(C(=O)N2CC[C@H](c3ccc(-c4ccnn4C)cc3)[C@@H](C)C2)cc1NC(=O)c1ccc(NC(C)C)nc1 (racemic)  FASN Keto-reductase Domain (Homo sapiens)            100
3  Cc1ccc(C(=O)N2CC(c3ccc(-c4cccnc4N)cc3)C2)cc1NC(=O)c1ccc(N2CCOCC2)nc1  FASN Keto-reductase Domain (Homo sapiens)            102
4  Cc1ccc(C(=O)N2CCC(c3ccc(-c4cnn(C)c4)cc3)CC2)cc1NC(=O)c1ccccc1C(F)(F)F  FASN Keto-reductase Domain (Homo sapiens)            204
